Values from paper PMC8009520

Each entry below lists one item and its recorded IC50 value.
study_system: rat isoform of TRPM8 channels (Rattus norvegicus)
Construct: expressed in transfected cells
Sequence (Q8R455 whole entry, canonical isoform): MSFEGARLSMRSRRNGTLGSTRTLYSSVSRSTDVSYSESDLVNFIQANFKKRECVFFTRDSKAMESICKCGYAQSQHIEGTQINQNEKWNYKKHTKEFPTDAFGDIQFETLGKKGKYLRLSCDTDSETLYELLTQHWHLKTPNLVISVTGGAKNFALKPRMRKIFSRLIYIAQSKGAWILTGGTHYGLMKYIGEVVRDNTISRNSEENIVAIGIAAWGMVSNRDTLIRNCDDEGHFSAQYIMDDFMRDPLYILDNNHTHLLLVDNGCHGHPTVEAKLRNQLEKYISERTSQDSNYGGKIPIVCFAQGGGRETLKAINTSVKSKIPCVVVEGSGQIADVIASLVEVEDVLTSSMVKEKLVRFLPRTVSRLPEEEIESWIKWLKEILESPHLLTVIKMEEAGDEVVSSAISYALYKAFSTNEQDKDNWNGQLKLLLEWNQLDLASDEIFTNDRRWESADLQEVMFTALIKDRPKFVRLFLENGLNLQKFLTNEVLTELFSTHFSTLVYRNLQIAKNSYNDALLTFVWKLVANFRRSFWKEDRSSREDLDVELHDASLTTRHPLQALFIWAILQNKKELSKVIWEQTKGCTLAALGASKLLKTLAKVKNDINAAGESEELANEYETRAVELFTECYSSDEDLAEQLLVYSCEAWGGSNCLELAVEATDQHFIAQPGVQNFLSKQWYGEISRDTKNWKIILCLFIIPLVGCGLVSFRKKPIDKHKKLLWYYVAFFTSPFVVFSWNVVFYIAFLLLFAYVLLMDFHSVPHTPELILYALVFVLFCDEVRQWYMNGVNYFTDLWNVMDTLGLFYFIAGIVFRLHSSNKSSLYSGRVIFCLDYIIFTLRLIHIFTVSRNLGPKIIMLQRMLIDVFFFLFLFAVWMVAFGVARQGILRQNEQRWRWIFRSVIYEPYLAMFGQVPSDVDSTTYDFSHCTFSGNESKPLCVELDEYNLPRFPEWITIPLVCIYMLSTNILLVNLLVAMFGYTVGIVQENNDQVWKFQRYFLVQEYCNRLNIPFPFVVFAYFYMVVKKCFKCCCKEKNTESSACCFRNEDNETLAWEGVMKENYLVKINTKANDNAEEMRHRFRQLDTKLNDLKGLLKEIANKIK
procedure_summary: Ca2+ fluorimetric assay, menthol-activated channel
Type: cell-based
measurement_conditions: supplementary xlsx; read-out: rTRPM8 IC50 (calcium microfluorimetric assays)
Protocol: TRPM8 blocker activity of all synthesized compounds was tested by Ca^2+ fluorimetric assays using HEK-293 cells stably expressing the rat isoform of TRPM8 channels, using menthol and AMTB as prototypical agonist and antagonist, respectively. […] The tested molecules dissolved in DMSO were added at the desired concentrations, and the plates were incubated in darkness at 37 °C in a humidified atmosphere of 5% CO2 for 60 min. […] The changes in fluorescence intensity were recorded during 15 cycles more. […]
// units = nM; emit number, no label

Answered cases to consult:
O=C1NCC(=O)N2[C@@H](c3ccc(Cl)cc3)c3[nH]c4ccccc4c3C[C@@H]12 [27b] :: 1200
O=C1N[C@H](Cc2ccccc2)C(=O)N2Cc3[nH]c4ccccc4c3C[C@@H]12 :: 300
O=C1[C@@H]2Cc3c([nH]c4ccccc34)[C@H](c3ccc(F)cc3)N2C(=O)N1c1cccc(C(F)(F)F)c1 [36b] :: 300
COC(=O)[C@@H]1Cc2c([nH]c3ccccc23)[C@H](c2ccccc2)N1Cc1ccccc1 :: 1400
CC(C)C[C@H]1c2[nH]c3ccccc3c2C[C@H]2C(=O)N[C@@H](Cc3ccccc3)C(=O)N21 [25b] :: 900
O=C(NCc1ccc(F)cc1)[C@@H]1Cc2c([nH]c3ccccc23)CN1 :: 600

Exercise: What IC50 value was documented for this molecule, O=C1N[C@@H](Cc2ccccc2)C(=O)N2Cc3[nH]c4ccccc4c3C[C@@H]12 ?
Key: 1200
